- Tested on: Zymoseptoria tritici
- assay.text: Leaf blotch of wheat (SEPTTR) disease control on wheat seedlings
- Type: in vivo
- test.parameters: high volume application, 100 ppm, 1 day protectant
property.name: SEPTTR 1DP disease control rating, HV activity at 100 ppm

In the examples that follow, each entry is paired with its recorded SEPTTR 1DP disease control rating, HV activity at 100 ppm.
[[record]]
molecule = "COc1ccnc(C(=O)NC(Cc2ccccc2)C(=O)OC(C)C(Oc2ccccc2)C(C)C)c1O (mixture of isomers) [Cmpd 812]"
result = "B (≤ 80)"

[[record]]
molecule = "COc1ccnc(C(=O)N[C@@H](C)C(=O)O[C@@H](C)[C@H](Oc2ccc(C)cc2)C2CCCC2)c1O [Cmpd 846]"
result = "B (≤ 80)"

[[record]]
molecule = "COc1ccnc(C(=O)N[C@@H](CC(C)C)C(=O)O[C@@H](C)[C@H](Oc2ccccc2)C(C)C)c1O [Cmpd 813]"
result = "D"

[[record]]
molecule = "COc1ccnc(C(=O)N[C@@H](C)C(=O)O[C@@H](C)[C@H](Oc2ccccc2)c2ccc(F)cc2)c1O [Cmpd 848]"
result = "B (≤ 80)"


// each molecule listed below needs its SEPTTR 1DP disease control rating, HV activity at 100 ppm
1. COc1ccnc(C(=O)N[C@@H](C)C(=O)O[C@@H](C)[C@H](Oc2cccc(F)c2)c2cccc(-c3ccccc3)c2)c1O [Cmpd 814]
2. COc1ccnc(C(=O)NC(C(=O)OC(C)C(Oc2ccccc2)C(C)C)C(F)(F)F)c1O (mixture of isomers) [Cmpd 1018]

Result:
1: D; 2: A (> 80)

Working through the 4 molecules below one at a time, give SEPTTR 1DP disease control rating, HV activity at 100 ppm for each.
1. COc1ccnc(C(=O)NC(C)C(=O)OC(C)(C)C(Oc2ccccc2)C(C)C)c1O (stereo not drawn) [Cmpd 831]
2. COc1ccnc(C(=O)N[C@@H](C)C(=O)O[C@@H](C)[C@H](Oc2ccc(Cl)cc2)C2CCCC2)c1O [Cmpd 842]
3. COc1ccnc(C(=O)N[C@@H](C)C(=O)O[C@@H](C)[C@H](Oc2cccc(Cl)c2)C2CC2)c1O [Cmpd 1009]
4. CCC[C@@H](Oc1ccc(Cl)c(OC)c1)[C@H](C)OC(=O)[C@H](C)NC(=O)c1nccc(OC)c1O [Cmpd 1008]

Result:
1: D; 2: A (> 80); 3: A (> 80); 4: B (≤ 80)

Below are 7 molecules. Give each one its SEPTTR 1DP disease control rating, HV activity at 100 ppm.
1. COc1cccc(O[C@H](C2CCCC2)[C@H](C)OC(=O)[C@H](C)NC(=O)c2nccc(OC)c2O)c1 [Cmpd 847]
2. COc1ccnc(C(=O)N[C@@H](C)C(=O)O[C@@H](C)[C@H](Oc2cccc(Cl)c2)C(C)(C)C)c1O [Cmpd 1007]
3. COc1ccnc(C(=O)NC(C)C(=O)OC(C)C(Oc2ccc(Cl)cc2Cl)c2ccccc2)c1O (stereo not drawn) [Cmpd 817]
4. C=CC[C@@H](Oc1cccc(Cl)c1)[C@H](C)OC(=O)[C@H](C)NC(=O)c1nccc(OC)c1O [Cmpd 1021]
5. COc1cc(O[C@@H]([C@H](C)OC(=O)[C@H](C)NC(=O)c2nccc(OC)c2O)C(C)(C)C)ccc1Cl [Cmpd 1001]
6. COc1cc(O[C@H](C2CC2)[C@H](C)OC(=O)[C@H](C)NC(=O)c2nccc(OC)c2O)ccc1Cl [Cmpd 1000]
7. C=CC[C@@H](OCC1CC1)[C@H](C)OC(=O)[C@H](C)NC(=O)c1nccc(OC)c1O [Cmpd 1024]

Result:
1: B (≤ 80); 2: A (> 80); 3: A (> 80); 4: A (> 80); 5: B (≤ 80); 6: B (≤ 80); 7: D

# batch: return SEPTTR 1DP disease control rating, HV activity at 100 ppm for each of the 7 molecules below
1. COc1ccnc(C(=O)NC(C)C(=O)OC(C)C(OCC2CC2)C23CC4CC(CC(C4)C2)C3)c1O (stereo not drawn) [Cmpd 827]
2. COc1ccnc(C(=O)NC(C)C(=O)OC(C)C(OC)c2ccccc2)c1O (stereo not drawn) [Cmpd 823]
3. CCC[C@@H](OCC1CC1)[C@H](C)OC(=O)[C@H](C)NC(=O)c1nccc(OC)c1O [Cmpd 1003]
4. COc1ccnc(C(=O)NC(C)C(=O)OC(C)C(OC)C23CC4CC(CC(C4)C2)C3)c1O (stereo not drawn) [Cmpd 829]
5. COc1ccnc(C(=O)NC(C)C(=O)OC(C)C(Oc2ccccc2)c2ccccc2)c1O (stereo not drawn) [Cmpd 818]
6. COc1ccnc(C(=O)N[C@@H](C)C(=O)O[C@@H](C)[C@H](OCC2CC2)C2CCCCC2)c1O [Cmpd 816]
7. C=CC[C@@H](OCC(=C)C)[C@H](C)OC(=O)[C@H](C)NC(=O)c1nccc(OC)c1O [Cmpd 1019]

Result:
1. B (≤ 80)
2. D
3. A (> 80)
4. D
5. A (> 80)
6. B (≤ 80)
7. B (≤ 80)

====

- System: Zymoseptoria tritici
- assay.text: Leaf blotch of wheat (SEPTTR) disease control on wheat seedlings
- Assay type: in vivo
- test.parameters: HV application at 100 ppm; 3 Day Curative; wheat leaf blotch
- Description: All fungicides were evaluated using the aforementioned method for their activity vs. all target diseases, unless stated otherwise. Wheat leaf blotch and brown rust activity were also evaluated using track spray applications, in which case the fungicides were formulated as EC formulations, containing 0.1% Trycol 5941 in the spray solutions. […] Percent disease control was calculated using the ratio of disease severity on treated plants relative to untreated plants.
property.name: SEPTTR 3DC disease control rating, HV activity

[[record]]
smiles = "CCC(CC)[C@@H](Oc1cc(F)cc(Cl)c1)[C@H](C)OC(=O)[C@@H](NC(=O)c1nccc(OC)c1O)C(C)C"
result = "B (≤ 80)"

[[record]]
smiles = "COc1ccnc(C(=O)N[C@@H](C)C(=O)O[C@@H](C)[C@@H](Cc2ccccc2)Oc2ccccc2)c1O"
result = "B (≤ 80)"

[[record]]
smiles = "CCC(CC)[C@@H](Oc1ccc(-c2ccccc2)cc1)[C@H](C)OC(=O)[C@@H](NC(=O)c1nccc(OC)c1O)C(C)C"
result = "B (≤ 80)"

[[record]]
smiles = "COc1ccnc(C(=O)N[C@@H](C)C(=O)O[C@@H](C)COc2ccccc2)c1O"
result = "D"


====

- Test system: Zymoseptoria tritici
- assay.text: Leaf blotch of wheat (SEPTTR) disease control on wheat seedlings
- Assay type: in vivo
- test.parameters: HV application at 100 ppm; 1 Day Protectant; wheat leaf blotch
property.name: SEPTTR 1DP disease control rating, HV activity

The cases that follow already have their SEPTTR 1DP disease control rating, HV activity on record.
[[record]]
molecule = "CCCOC(CC)C(Oc1ccccc1)C(C)OC(=O)C(CC(C)C)NC(=O)c1nccc(OC)c1OC(C)=O (centres unmarked)"
result = "B (≤ 80)"

[[record]]
molecule = "CCC(CC)C(Oc1cc(F)cc(Cl)c1)C(C)OC(=O)C(C)NC(=O)c1nccc(OC)c1O (centres unmarked) [Cmpd 423]"
result = "A (> 80)"

[[record]]
molecule = "COc1ccnc(C(=O)N[C@@H](C)C(=O)O[C@@H](C)[C@H](Oc2ccc(Cl)cc2)C(C)C)c1O"
result = "A (> 80)"

[[record]]
molecule = "C=CC(OCCC)C(Oc1ccccc1)C(C)OC(=O)C(C)NC(=O)c1nccc(OC)c1OCOC(C)=O (centres unmarked)"
result = "A (> 80)"

[[record]]
molecule = "COc1ccnc(C(=O)N[C@@H](C)C(=O)O[C@@H](C)[C@@H](Cc2ccccc2)OCC2CC2)c1O"
result = "D"


Please state, for each entry, its recorded SEPTTR 1DP disease control rating, HV activity.
1. COc1ccnc(C(=O)N[C@@H](C)C(=O)O[C@@H](C)COCC2CC2)c1O
2. COc1ccnc(C(=O)NC(C(=O)OC(C)C(Oc2ccc3ccccc3c2)C(C)C)C(C)C)c1O (centres unmarked)
3. CCCOC(CC)C(Oc1ccccc1)C(C)OC(=O)C(C)NC(=O)c1nccc(OC)c1O (centres unmarked) [Cmpd 289]

Result:
B (≤ 80)
B (≤ 80)
B (≤ 80)

====

- System: Zymoseptoria tritici
- assay.text: Leaf blotch of wheat (SEPTTR) disease control on wheat seedlings
- Assay type: in vivo
- Design: key: A: > 80; B: ≤ 80; C: Not Tested; D: No Activity Observed in the Reported Assay
- test.parameters: HV application at 100 ppm; 3 Day Curative; wheat leaf blotch
property.name: SEPTTR 3DC disease control rating, HV activity

[[record]]
smiles = "CCCO[C@@H]([C@H](C)OC(=O)[C@H](C)NC(=O)c1nccc(OC)c1O)[C@H](CC)Oc1ccccc1"
result = "D"

[[record]]
smiles = "CCC(CC)[C@@H](Oc1ccc(Cl)cc1Cl)[C@H](C)OC(=O)[C@@H](NC(=O)c1nccc(OC)c1O)C(C)C"
result = "D"

